All values here come from patent US20210155689A1.

# Mean fluorescence intensity annotations
TARGET_OR_TEST_SYSTEM: T1, human LAG-3 on cells (HEK293-hLAG-3 stable cell line) (human, UniProt P18627 23-525)
T1 sequence: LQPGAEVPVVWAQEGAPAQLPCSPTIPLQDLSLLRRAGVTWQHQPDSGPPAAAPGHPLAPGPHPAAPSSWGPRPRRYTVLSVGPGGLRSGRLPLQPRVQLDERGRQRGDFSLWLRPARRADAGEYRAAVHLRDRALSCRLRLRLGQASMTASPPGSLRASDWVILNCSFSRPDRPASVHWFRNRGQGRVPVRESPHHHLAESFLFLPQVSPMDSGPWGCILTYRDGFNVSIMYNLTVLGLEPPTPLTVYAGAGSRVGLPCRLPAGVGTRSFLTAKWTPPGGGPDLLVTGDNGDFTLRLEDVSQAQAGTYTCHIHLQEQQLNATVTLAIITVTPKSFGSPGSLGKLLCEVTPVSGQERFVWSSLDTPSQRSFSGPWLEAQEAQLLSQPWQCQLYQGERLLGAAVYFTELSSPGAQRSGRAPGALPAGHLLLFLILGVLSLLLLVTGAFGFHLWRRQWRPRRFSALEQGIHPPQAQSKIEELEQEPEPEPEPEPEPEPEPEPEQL
EXPERIMENT_DESCRIPTION: FACS, HEK293-hLAG-3, antibody 1.6 nM
// keep it numeric: no unit symbol after the value

Look over these answered cases.
BINDER | Mean fluorescence intensity
405B8H3-10 humanized antibody (antibody, V domains shown) VH: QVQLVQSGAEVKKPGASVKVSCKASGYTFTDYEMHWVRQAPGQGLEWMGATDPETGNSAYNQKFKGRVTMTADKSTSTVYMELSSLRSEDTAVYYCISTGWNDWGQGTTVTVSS VL: DIKMTQSPSSLSASVGDRVTITCKASQDINSYLSWFQQKPGKSPKSLIYRADRLLDGVPSRFSGSGSGQDYTLTISSLQPEDFATYYCLQYDEFPYTFGQGTKLEIK | 184
405B8H3-4 humanized antibody (antibody, V domains shown) VH: QVQLVQSGAEVKKPGASVKVSCKASGYTFTDYEMHWVKQAPGQGLEWIGATDPETGNSAYNQKFKGKATMTADKSTSTAYMELSSLRSEDTAVYYCISTGWNDWGQGTTVTVSS VL: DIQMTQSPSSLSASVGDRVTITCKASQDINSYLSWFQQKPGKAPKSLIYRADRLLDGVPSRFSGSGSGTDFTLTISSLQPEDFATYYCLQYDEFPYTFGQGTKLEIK | 151
405B8H3-12 humanized antibody (antibody, V domains shown) VH: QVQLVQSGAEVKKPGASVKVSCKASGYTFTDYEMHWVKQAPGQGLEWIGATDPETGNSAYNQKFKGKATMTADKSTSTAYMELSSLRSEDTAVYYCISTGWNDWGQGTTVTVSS VL: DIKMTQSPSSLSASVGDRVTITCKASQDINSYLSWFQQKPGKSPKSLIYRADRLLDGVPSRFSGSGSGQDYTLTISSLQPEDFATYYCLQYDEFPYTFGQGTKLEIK | 142
405B8H3-8 humanized antibody (antibody, V domains shown) VH: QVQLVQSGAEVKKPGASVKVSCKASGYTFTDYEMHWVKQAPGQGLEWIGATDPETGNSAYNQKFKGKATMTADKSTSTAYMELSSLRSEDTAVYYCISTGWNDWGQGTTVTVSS VL: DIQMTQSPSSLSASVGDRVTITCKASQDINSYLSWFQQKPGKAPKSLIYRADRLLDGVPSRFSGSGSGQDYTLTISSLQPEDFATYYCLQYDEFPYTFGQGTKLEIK | 134
405B8H3-11 humanized antibody (antibody, V domains shown) VH: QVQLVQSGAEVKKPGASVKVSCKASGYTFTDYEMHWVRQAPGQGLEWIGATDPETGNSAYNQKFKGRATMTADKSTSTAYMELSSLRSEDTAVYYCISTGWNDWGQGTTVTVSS VL: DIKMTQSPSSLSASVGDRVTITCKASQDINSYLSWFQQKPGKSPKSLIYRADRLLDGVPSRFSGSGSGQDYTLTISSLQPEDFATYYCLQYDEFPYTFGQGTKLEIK | 164

Task item: Give its Mean fluorescence intensity value. Item: 405B8H3-9 humanized antibody (antibody, V domains shown) VH: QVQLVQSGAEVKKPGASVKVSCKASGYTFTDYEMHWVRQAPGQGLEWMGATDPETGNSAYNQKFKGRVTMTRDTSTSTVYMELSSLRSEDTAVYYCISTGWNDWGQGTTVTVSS VL: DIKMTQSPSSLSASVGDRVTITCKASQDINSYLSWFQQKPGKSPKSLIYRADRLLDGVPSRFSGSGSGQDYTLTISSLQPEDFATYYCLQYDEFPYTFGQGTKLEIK
Reply: 218

Task item: What about 405B8H3-1 humanized antibody (antibody, V domains shown) VH: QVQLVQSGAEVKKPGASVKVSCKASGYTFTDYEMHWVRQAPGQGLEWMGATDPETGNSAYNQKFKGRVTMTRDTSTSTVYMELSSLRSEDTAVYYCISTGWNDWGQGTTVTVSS VL: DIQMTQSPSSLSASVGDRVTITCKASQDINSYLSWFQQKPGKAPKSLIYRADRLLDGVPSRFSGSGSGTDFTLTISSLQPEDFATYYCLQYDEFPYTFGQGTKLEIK ?
Reply: 178

Task item: What about 405B8H3-5 humanized antibody (antibody, V domains shown) VH: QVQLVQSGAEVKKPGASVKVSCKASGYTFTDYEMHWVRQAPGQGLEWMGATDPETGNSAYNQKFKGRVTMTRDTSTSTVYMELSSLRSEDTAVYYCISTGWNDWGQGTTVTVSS VL: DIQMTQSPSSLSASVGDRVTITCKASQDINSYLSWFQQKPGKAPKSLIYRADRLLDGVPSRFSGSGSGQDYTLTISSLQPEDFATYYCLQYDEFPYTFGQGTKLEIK ?
Reply: 174
